Assay: qHTS assay for small molecule agonists of the antioxidant response element (ARE) signaling pathway (AID 743202)
Settings: HepG2 ARE-bla reporter, beta-lactamase FRET, 16 h; series mostly up to 73.3 µM
Inconclusive results are not listed. The source made the active and inactive calls. Calls come from the whole dose curve; as a rule, active = well fitted activation curve with a large enough effect in the signal ratio in the repeat runs (not every such curve was filed as active); inconclusive = weak or mixed curves, or effect the other way; inactive = no such curve, though single readings can be large or run the other way; the % refers to the signal ratio.
Outcome codes: YES = active, NO = inactive

CO[C@H]1O[C@H](CO)[C@@H](O)[C@H](O)[C@H]1O :: NO
OC/C(Br)=C(\Br)CO :: NO
CCCCC(CC)COC(=O)COc1ccc(Cl)cc1C (stereo not drawn) :: NO
Cc1cc(OI)c(C(C)C)cc1-c1cc(C(C)C)c(OI)cc1C :: NO
CN1CCN(c2c(F)cc3c(=O)c(C(=O)O)cn4c3c2OCN4C)CC1 :: NO
CN1C(=O)CC(C)(c2ccccc2)C1=O (stereo not drawn) :: NO
CC(COc1ccc(C(C)(C)C)cc1)OS(=O)OCCCl (stereo not drawn) :: NO
Nc1ccc(Cl)cc1[N+](=O)[O-] :: NO
OC(CCCN1CCCCC1)(c1ccccc1)c1ccccc1 :: NO
CCC(C)(O)CCC=C(C)C (stereo not drawn) :: NO
Cc1ccc(S(=O)(=O)NC2CCCCC2)cc1 :: NO
COC(=O)c1cc(Cl)ccc1NS(=O)(=O)C(F)(F)F :: NO
CCCCCCOC(=O)C(C)C :: NO
O=C(CCCCCCCCC#CI)Oc1ccccc1 :: NO
Oc1ccc(Nc2ccccc2)cc1 :: YES
Cc1cc(C(=C2C=CC(=Nc3ccc(S(=O)(=O)O)cc3S(=O)(=O)O)C=C2)c2ccc(Nc3ccc(S(=O)(=O)O)cc3)cc2)ccc1N :: NO
CCN(CC)CCNC(=O)c1ccc(NC(C)=O)cc1 :: NO
Cc1ccc(S)cc1 :: NO
O=C1OCCN1/N=C/c1ccc([N+](=O)[O-])o1 :: YES
c1ccc(COCc2ccccc2)cc1 :: NO
CCCc1c(OCCCOc2ccc(OCC(=O)O)cc2)ccc(C(C)=O)c1O :: NO
C/C(=N/NC(=O)c1ccncc1)C(=O)O :: NO
CN(C)CCOC1=Cc2ccccc2Sc2ccc(Cl)cc21 :: NO
